- measurement.protocol: solvent given as SMILES
- condition.label: in CC(C)O
fluorescence lifetime listing for selected molecules.

molecule: Cc1ccc(-n2c(-c3ccccc3O)nc(-c3ccccc3O)c2-c2ccccc2O)cc1
fluorescence lifetime: 3.5 ns
//
molecule: Nc1ccc2c(c1)C(=O)c1ccc(N)cc1C2=O
fluorescence lifetime: 0.6 ns
//
molecule: CCN(CC)c1ccc2c(-c3ccccc3C(=O)[O-])c3ccc(=[N+](CC)CC)cc-3oc2c1
fluorescence lifetime: 3.26 ns
//
molecule: COc1c2ccccc2c(-c2ccccc2)c2ccccc12
fluorescence lifetime: 2.94 ns
//
molecule: CC(=O)Nc1ccc2c3c(cccc13)C(=O)c1ccccc1-2
fluorescence lifetime: 9.3 ns
//
molecule: COc1ccc(-c2ccc(-c3ccc(C#N)s3)s2)cc1
fluorescence lifetime: 0.89 ns
//
molecule: COc1nc(Cl)nc(Nc2ccc3c4c(cccc24)C(=O)c2ccccc2-3)n1
fluorescence lifetime: 8 ns
//
molecule: N#Cc1cccc2[nH]ccc12
fluorescence lifetime: 5.7 ns
//
molecule: COc1nc(Nc2ccc3c4c(cccc24)C(=O)c2ccccc2-3)nc(OC)n1
fluorescence lifetime: 7.7 ns
//
molecule: CCNc1cc2oc3c/c(=[NH+]\CC)c(C)cc-3c(-c3ccccc3C(=O)OCC)c2cc1C
fluorescence lifetime: 3.96 ns
//
molecule: O=C1c2ccccc2-c2cccc(O)c21
fluorescence lifetime: 5.5 ns
//
molecule: COC(=O)c1ccc(C#Cc2ccc(N(C)C)cc2)cc1
fluorescence lifetime: 1.32 ns
//
molecule: NS(=O)(=O)c1ccc(N2N=C(c3ccc(O)cc3)CC2c2ccc(Cl)cc2)cc1 (configuration not stated)
fluorescence lifetime: 2 ns
//
molecule: O=C([O-])c1ccccc1C1=c2cc3c4c(c2Oc2c1cc1c5c2CCCN5CCC1)CCC[N+]=4CCC3
fluorescence lifetime: 4.36 ns
//
molecule: COC(=O)c1ccc(C#Cc2ccccc2)cc1
fluorescence lifetime: 0.64 ns
//
molecule: Cc1cc(=O)c2ccc(N)cc2o1
fluorescence lifetime: 4.56 ns
//
molecule: CCN(CC)c1ccc2c(c1)OC1=CC(N(CC)CC)C=CC1[C+]2c1ccccc1C(=O)O (configuration not stated)
fluorescence lifetime: 2.69 ns
//
molecule: CCN(CC)c1ccc2nc3c4ccccc4c(=O)cc-3oc2c1
fluorescence lifetime: 4.1 ns
//
molecule: Cc1ccc(C2CC(c3ccc(O)cc3)=NN2c2ccc(S(N)(=O)=O)cc2)cc1 (configuration not stated)
fluorescence lifetime: 2.11 ns
//
molecule: COc1cc(-c2cc(-c3ccc(C)cc3)nc3c(C#N)c(N4CCCC4)nc(N)c23)cc(OC)c1OC
fluorescence lifetime: 10.3 ns
//
molecule: NCCc1c[nH]c2ccc(O)cc12
fluorescence lifetime: 4.28 ns
//
molecule: COC(=O)C(Cc1ccc2oc(-c3ccc(-n4c5ccccc5c5ccccc54)cc3)nc2c1)NC(=O)OC(C)(C)C (configuration not stated)
fluorescence lifetime: 4.49 ns
